Measured values drawn from patent US20240239886A1 for this set.

# direct ELISA positive/negative values compiled below
Target: T1, recombinant protein consisting of the extracellular domain of human TREM2 fused to the His tag (human, UniProt Q9NZC2 19-174)
T1 construct: also called His tagged hTREM2; His-TREM2
T1 sequence: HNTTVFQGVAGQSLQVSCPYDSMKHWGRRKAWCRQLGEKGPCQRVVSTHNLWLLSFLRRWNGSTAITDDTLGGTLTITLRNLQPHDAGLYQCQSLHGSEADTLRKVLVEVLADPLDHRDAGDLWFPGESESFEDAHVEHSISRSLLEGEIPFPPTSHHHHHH
Test: direct ELISA
The figure you give is taken to be in ratio; do not add the unit.

# annotated cases, reported direct ELISA positive/negative shown
83E10B12 (antibody, V domains shown, Biotin conjugated in sup ELISA, cell-based ELISA and flow cytometry) VH: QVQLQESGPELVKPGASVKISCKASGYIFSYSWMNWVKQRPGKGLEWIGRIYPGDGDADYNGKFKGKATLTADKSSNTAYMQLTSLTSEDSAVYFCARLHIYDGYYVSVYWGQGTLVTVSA VL: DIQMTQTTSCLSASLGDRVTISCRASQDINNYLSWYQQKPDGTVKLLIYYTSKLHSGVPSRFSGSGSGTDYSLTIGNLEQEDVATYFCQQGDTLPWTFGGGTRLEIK | 34.8
80E3C7 (antibody, V domains shown, Biotin conjugated in sup ELISA, cell-based ELISA and flow cytometry; also called anti-TREM2 antibody (E3C7); TREM2 Ab E3C7) VH: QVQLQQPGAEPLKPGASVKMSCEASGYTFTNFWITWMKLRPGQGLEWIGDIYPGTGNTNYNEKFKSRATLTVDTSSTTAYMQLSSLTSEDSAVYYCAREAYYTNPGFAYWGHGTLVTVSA VL: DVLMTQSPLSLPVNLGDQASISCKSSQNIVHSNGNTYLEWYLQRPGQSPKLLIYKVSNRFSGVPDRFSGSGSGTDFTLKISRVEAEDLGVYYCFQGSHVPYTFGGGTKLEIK | 33.4

Shifting focus to the binder that follows.
Prompt line: Find the measured direct ELISA positive/negative of 60H4A3 (antibody, V domains shown, Biotin conjugated in sup ELISA, cell-based ELISA and flow cytometry) VH: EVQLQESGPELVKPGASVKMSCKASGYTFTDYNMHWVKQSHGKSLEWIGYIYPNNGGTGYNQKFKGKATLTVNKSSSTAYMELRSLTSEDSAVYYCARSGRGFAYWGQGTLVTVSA VL: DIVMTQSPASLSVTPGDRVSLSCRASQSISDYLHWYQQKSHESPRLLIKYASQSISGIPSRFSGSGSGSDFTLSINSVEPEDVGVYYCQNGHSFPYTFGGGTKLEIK and report it.
Response line: 31.5
